Tested on: tBHQ-induced calcium influx into Hek cells (SOCE)
test-name: Store-operated calcium entry (SOCE) by Fura-2 Ca2+ measurements in Hek cells
Format: cell-based, Human
protocol-conditions: FIG. 2A; HEK cells, stores depleted with 50 μM tBHQ, compound added with 2 mM Ca2+
readout: Calcium response to SOCE-modulators (regulation of SOCE)

State the recorded Calcium response to SOCE-modulators (regulation of SOCE) for this entry: COc1cccc(-c2ccc(-n3cc(-c4cccc(C(=O)O)c4)nn3)cc2)c1OC [Compound 20]
negatively regulate SOCE

State the recorded Calcium response to SOCE-modulators (regulation of SOCE) for this entry: O=C(O)c1cccc(-c2cn(-c3ccc(-c4ccc5c(c4)OCCO5)cc3)nn2)c1 [Compound 18]
negatively regulate SOCE

State the recorded Calcium response to SOCE-modulators (regulation of SOCE) for this entry: COc1cccc(-c2ccc(-n3cc(-c4cccc(C(=O)O)c4)nn3)cc2)c1 [Compound 13]
negatively regulate SOCE
